molecular target: Mu-type opioid receptor (Cavia porcellus, UniProt P97266)
Sequence (P97266 whole entry): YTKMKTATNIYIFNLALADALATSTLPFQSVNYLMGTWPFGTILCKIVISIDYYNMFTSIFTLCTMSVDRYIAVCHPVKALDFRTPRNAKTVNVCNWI
Assign pIC50 to each entry below.
FYI, pIC50 means -log10 of a concentration in mol per litre.

Given item NC(=O)[C@@H]1CCCN1C(=O)[C@H](Cc1ccccc1)NC(=O)[C@@H]1CCCN1C(=O)[C@@H](N)Cc1ccc(O)cc1 [MORPHICEPTIN] , the value recorded as its pIC50 is 6.26

Given item CN(C(=O)[C@@H]1CCCN1C(=O)[C@@H](N)Cc1ccc(O)cc1)[C@@H](Cc1ccccc1)C(=O)N1CCC[C@@H]1C(N)=O , the value recorded as its pIC50 is 7.68

Given item CN(C(=O)[C@@H]1CCCN1C(=O)[C@@H](N)Cc1ccc(O)cc1)[C@@H](Cc1ccccc1)C(=O)N1CCC[C@H]1C(N)=O , the value recorded as its pIC50 is 6.77

---

target: Delta-type opioid receptor (Mus musculus, UniProt P32300); experiment: In vitro inhibitory activity against delta opioid receptor using mouse vas deferens (MVD) assay
Sequence (P32300 whole entry): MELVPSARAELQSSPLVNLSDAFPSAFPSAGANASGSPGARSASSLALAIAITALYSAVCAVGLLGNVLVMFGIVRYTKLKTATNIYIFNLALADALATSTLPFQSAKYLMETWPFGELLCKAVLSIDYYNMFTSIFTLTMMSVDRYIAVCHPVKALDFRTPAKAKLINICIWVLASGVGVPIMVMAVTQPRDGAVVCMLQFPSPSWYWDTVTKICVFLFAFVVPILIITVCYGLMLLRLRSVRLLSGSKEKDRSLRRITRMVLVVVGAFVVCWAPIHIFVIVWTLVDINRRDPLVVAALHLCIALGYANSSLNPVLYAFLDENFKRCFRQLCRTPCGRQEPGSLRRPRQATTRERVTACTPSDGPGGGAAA
EXPERIMENTAL_READOUT: pIC50
FYI, pIC50 means -log10 of a concentration in mol per litre.

Given item CN(C(=O)[C@@H]1CCCN1C(=O)[C@@H](N)Cc1ccc(O)cc1)[C@@H](Cc1ccccc1)C(=O)N1CCC[C@H]1C(N)=O , the value recorded as its pIC50 is 5.75

Given item CN(C(=O)[C@@H]1CCCN1C(=O)[C@@H](N)Cc1ccc(O)cc1)[C@@H](Cc1ccccc1)C(=O)N1CCC[C@@H]1C(N)=O , the value recorded as its pIC50 is 5.90

Given item NC(=O)[C@@H]1CCCN1C(=O)[C@H](Cc1ccccc1)NC(=O)[C@@H]1CCCN1C(=O)[C@@H](N)Cc1ccc(O)cc1 , the value recorded as its pIC50 is 5.43

Given item NC(=O)[C@H]1CCCN1C(=O)[C@@H](Cc1ccccc1)NC(=O)[C@@H]1CCCN1C(=O)[C@@H](N)Cc1ccc(O)cc1 , the value recorded as its pIC50 is 5.32

Given item C[C@@H](C(=O)N[C@@H](Cc1ccccc1)C(=O)N1CCC[C@@H]1C(N)=O)N(C)C(=O)[C@@H](N)Cc1ccc(O)cc1 , the value recorded as its pIC50 is 6.69

---

EXPERIMENTAL_READOUT: log10 IC50 (log10 of the value in nM)
On a log10 scale: recorded IC50, unit nM.

Let me check: NC(=O)[C@H]1CCCN1C(=O)[C@@H](Cc1ccccc1)NC(=O)[C@@H]1CCCN1C(=O)[C@@H](N)Cc1ccc(O)cc1 , system Mu-type opioid receptor (Cavia porcellus), measured log10 IC50 is 2.75

Let me check: NC(=O)[C@H]1CCCN1C(=O)[C@H](Cc1ccccc1)NC(=O)[C@@H]1CCCN1C(=O)[C@@H](N)Cc1ccc(O)cc1 , system Mu-type opioid receptor (Cavia porcellus), measured log10 IC50 is 1.46

Let me check: CN(C(=O)[C@@H]1CCCN1C(=O)[C@@H](N)Cc1ccc(O)cc1)[C@H](Cc1ccccc1)C(=O)N1CCC[C@@H]1C(N)=O , system Mu-type opioid receptor (Cavia porcellus), measured log10 IC50 is 3.42

Let me check: NC(=O)[C@@H]1CCCN1C(=O)[C@@H](Cc1ccccc1)NC(=O)[C@@H]1CCCN1C(=O)[C@@H](N)Cc1ccc(O)cc1 , system Mu-type opioid receptor (Cavia porcellus), measured log10 IC50 is 2.04

Let me check: C[C@@H](C(=O)N[C@@H](Cc1ccccc1)C(=O)N1CCC[C@@H]1C(N)=O)N(C)C(=O)[C@@H](N)Cc1ccc(O)cc1 , system Mu-type opioid receptor (Cavia porcellus), measured log10 IC50 is 1.49

---

molecular target: Delta-type opioid receptor (Mus musculus, UniProt P32300); assay: In vitro inhibitory activity against delta opioid receptor using mouse vas deferens (MVD) assay
EXPERIMENTAL_READOUT: IC50 (µM)
Hi! Could you send only the number? It should be in µM, unit omitted.

Given item NC(=O)[C@H]1CCCN1C(=O)[C@H](Cc1ccccc1)NC(=O)[C@@H]1CCCN1C(=O)[C@@H](N)Cc1ccc(O)cc1 , the value recorded as its IC50 is 1.51

Given item NC(=O)[C@@H]1CCCN1C(=O)[C@@H](Cc1ccccc1)NC(=O)[C@@H]1CCCN1C(=O)[C@@H](N)Cc1ccc(O)cc1 , the value recorded as its IC50 is 0.594

Given item CN(C(=O)[C@@H]1CCCN1C(=O)[C@@H](N)Cc1ccc(O)cc1)[C@H](Cc1ccccc1)C(=O)N1CCC[C@@H]1C(N)=O , the value recorded as its IC50 is 565
